- SYSTEM_TESTED: UGT2B17 (Homo sapiens)
- Construct: purchased BD Gentest
- Sequence (O75795 24-530): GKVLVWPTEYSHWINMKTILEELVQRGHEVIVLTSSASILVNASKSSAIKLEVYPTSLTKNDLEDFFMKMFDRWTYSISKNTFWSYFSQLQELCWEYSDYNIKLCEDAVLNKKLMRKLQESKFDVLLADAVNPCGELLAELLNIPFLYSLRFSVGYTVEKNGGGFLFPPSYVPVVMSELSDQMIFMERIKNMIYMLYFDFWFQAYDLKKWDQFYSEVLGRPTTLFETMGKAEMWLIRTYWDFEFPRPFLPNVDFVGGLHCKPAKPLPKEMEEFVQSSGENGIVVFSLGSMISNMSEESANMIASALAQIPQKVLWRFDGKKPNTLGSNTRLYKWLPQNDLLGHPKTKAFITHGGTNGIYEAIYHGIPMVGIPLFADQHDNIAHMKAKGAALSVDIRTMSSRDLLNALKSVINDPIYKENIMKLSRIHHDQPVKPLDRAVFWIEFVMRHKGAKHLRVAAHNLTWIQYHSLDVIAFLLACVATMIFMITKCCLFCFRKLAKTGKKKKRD
- ASSAY_INFO: Inhibition screening of recombinant UGTs by NAF enantiomers, UGT2B17 (4-MU)
- Assay type: in vitro ADME
- CONDITION_CONTEXT: recombinant UGT2B17, probe 4-MU, 100 μM NAF enantiomer, read-out: Inhibition of 4-MU-G formation
OBSERVATION_TYPE: inhibition at 100 μM

{"MOLECULE": "COc1ccccc1N1CCN(C[C@@H](O)COc2cccc3ccccc23)CC1 [R(+)-NAF]", "inhibition at 100 μM": "> 75%"}

In the following, a different molecule is considered.
**Query** What inhibition at 100 μM value was documented for this molecule, COc1ccccc1N1CCN(C[C@H](O)COc2cccc3ccccc23)CC1 [S(-)-NAF] ?
**Result** > 75%
